# System: K562
# assayProcedure: NCI tumour cell line growth inhibition, 48 h
Activity calls are given as the source filed them. No stated cut-off is given here; in the data, active = GI50 up to about 1.1 µM and inactive = higher.
Each record here notes measured GI50.

Below are worked cases with known answers.
COc1ccccc1NC(=O)CC(=O)N1N=C(c2ccccc2)C(/N=N/c2ccc(Cl)cc2)C1=O (stereo not given)    29 µM (inactive)
O=c1[nH]c(=O)n(C2CC(O)C(CO)O2)cc1I (stereo not given)    > 23.1 µM (inactive)
COc1cc2c(c(OC)c1OC)-c1ccc(SC)c(=O)cc1[C@@H](OC(C)=O)CC2    < 0.01 µM (active)
COc1cccc2nc3c(C(=O)NCCN(C)C)cccc3nc12    3.76 µM (inactive)
CN(C)CCNC1=CC(=O)c2nc3ccccc3c3ccnc1c23    1.19 µM (inactive)
[N-]=[N+]=NC1(Cc2ccccc2)C(=O)Nc2ccccc2C1=O (stereo not given)    > 100 µM (inactive)
Nc1c2ccccc2nc2c(C(=O)Nc3ccc(S(N)(=O)=O)cc3)cccc12    28.6 µM (inactive)
O=C(CC(O)(C(F)(F)F)C(F)(F)Cl)CC(O)(C(F)(F)F)C(F)(F)Cl (stereo not given)    2.76 µM (inactive)

Okay, next one:
The reported GI50 of the compound CC(=O)Oc1ccc2c(c1)c1c(OC(C)=O)c3ccccc3c(OC(C)=O)c1n2Cc1cccc(C)c1 was 32.1 µM (inactive)
